- Test system: Plasmodium falciparum Sir2 (PF13_0152, Sir2A)
- Experiment description: pfSir2 binders on small-molecule microarrays, primary screen, biochemical, small-molecule microarray, 635 nm fluorescence (AID 1098);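 note: score merges spot fluorescence intensity with its signal-to-noise ratio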
- Assay setup: small-molecule microarray binding, fluorescence 635 nm; higher = more signal
Metric name: composite z-score
Give the figure only, with no unit attached.

Consider the reported composite z-score for these compounds:
1. O=C1[C@H]2[C@H]3[C@H](O)[C@H](O)CC(=NOC[C@@H](O)COCc4ccco4)[C@H]3CC[C@H]2C(=O)N1Cc1ccccc1
0.467
2. O=c1n(Cc2cc3c(cc2Cl)OCO3)c(=O)n2n1CC[C@@H]1C(=NOCc3ccccc3)[C@H]3O[C@H]3[C@@H](O)[C@@H]12
0.172
3. C=CC[C@@H]1C=C[C@H](ON=C[C@@H](C)[C@H](OCc2ccccc2)C(C)C)[C@@H](CO)O1
1.07
4. COCCNC(=O)OCC1CCCC2(CC(OC(=O)NCc3ccc4c(c3)OCO4)CC(CCC(=O)N[C@@H](C)C(=O)OC)O2)O1 (some centres undefined)
0.742
5. CCOC(=O)[C@H](CC(C)C)NC(=O)CCC1CC(OC(=O)NCCc2ccc(F)cc2)CC2(CCCC(COC(=O)NCC3CCCCC3)O2)O1 (some centres undefined)
0.0149
6. CCOC(=O)[C@H](CC(C)C)NC(=O)CCC1CC(OC(=O)NCCc2ccc(F)cc2)CC2(CCCC(COC(=O)NCC(c3ccccc3)c3ccccc3)O2)O1 (some centres undefined)
1.1

With those in mind, consider the next compound.
Give the measured composite z-score of CO[C@@H]1COC(=O)[C@@H](C)COC(=O)[C@@H](C)NC(=O)CC=C[C@@H]1C .
0.155

Where do the numbers come from? From PubChem BioAssay.
